- System: Staphylococcus aureus
- Assay explanation: Antimicrobial activity against methicillin-resistant Staphylococcus aureus 522/12 after 18 hrs by two-fold serial microdilution method
- Assay type: functional
- Experimental context: 522/12, 18 h
Reported endpoint: MIC (µM)
Answers are plain numbers, in µM.

Here's what some known entries look like.
CC[C@@H](C(=O)[C@@H](C)[C@@H](O)[C@H](C)[C@@H]1O[C@@H]([C@@H](CC)C(=O)O)CC[C@@H]1C)[C@H]1O[C@]2(C=C[C@@H](O)[C@]3(CC[C@@](C)([C@H]4CC[C@](O)(CC)[C@H](C)O4)O3)O2)[C@H](C)C[C@@H]1C
2.66
O=c1[nH]cc(F)c(=O)[nH]1
7.69
CC[C@@H](C(=O)[C@@H](C)[C@@H](O)[C@H](C)[C@@H]1O[C@@H]([C@@H](CC)C(=O)OC[C@H]2O[C@@H](n3cc(F)c(=O)[nH]c3=O)C[C@@H]2O)CC[C@@H]1C)[C@H]1O[C@]2(C=C[C@@H](O)[C@]3(CC[C@@](C)([C@H]4CC[C@](O)(CC)[C@H](C)O4)O3)O2)[C@H](C)C[C@@H]1C
8.17
O=C(O)c1cn(C2CC2)c2cc(N3CCNCC3)c(F)cc2c1=O
96.7

// for each molecule below, give its MIC
1. CC[C@@H](C(=O)[C@@H](C)[C@@H](O)[C@H](C)[C@@H]1O[C@@H]([C@@H](CC)C(=O)NCc2cn([C@H]3C[C@H](n4cc(F)c(=O)[nH]c4=O)O[C@@H]3CO)nn2)CC[C@@H]1C)[C@H]1O[C@]2(C=C[C@@H](O)[C@]3(CC[C@@](C)([C@H]4CC[C@](O)(CC)[C@H](C)O4)O3)O2)[C@H](C)C[C@@H]1C
2. [N-]=[N+]=N[C@H]1C[C@H](n2cc(F)c(=O)[nH]c2=O)O[C@@H]1CO

## Output
242
7.38

----------
Provide the reported log10 MIC of each item.
- System: Staphylococcus aureus
- Assay explanation: Antimicrobial activity against Staphylococcus aureus ATCC 6538 after 18 hrs by two-fold serial microdilution method
- Format: functional
- Experimental context: ATCC 6538, 18 h
Log scale reminder: MIC in µM, then log10 taken.

CC[C@@H](C(=O)[C@@H](C)[C@@H](O)[C@H](C)[C@@H]1O[C@@H]([C@@H](CC)C(=O)OC[C@H]2O[C@@H](n3cc(F)c(=O)[nH]c3=O)C[C@@H]2O)CC[C@@H]1C)[C@H]1O[C@]2(C=C[C@@H](O)[C@]3(CC[C@@](C)([C@H]4CC[C@](O)(CC)[C@H](C)O4)O3)O2)[C@H](C)C[C@@H]1C
0.61
[N-]=[N+]=N[C@H]1C[C@H](n2cc(F)c(=O)[nH]c2=O)O[C@@H]1CO
0.57
CC[C@@H](C(=O)[C@@H](C)[C@@H](O)[C@H](C)[C@@H]1O[C@@H]([C@@H](CC)C(=O)O)CC[C@@H]1C)[C@H]1O[C@]2(C=C[C@@H](O)[C@]3(CC[C@@](C)([C@H]4CC[C@](O)(CC)[C@H](C)O4)O3)O2)[C@H](C)C[C@@H]1C
0.42
CC[C@@H](C(=O)[C@@H](C)[C@@H](O)[C@H](C)[C@@H]1O[C@@H]([C@@H](CC)C(=O)NCc2cn([C@H]3C[C@H](n4cc(F)c(=O)[nH]c4=O)O[C@@H]3CO)nn2)CC[C@@H]1C)[C@H]1O[C@]2(C=C[C@@H](O)[C@]3(CC[C@@](C)([C@H]4CC[C@](O)(CC)[C@H](C)O4)O3)O2)[C@H](C)C[C@@H]1C
1.48
O=c1[nH]cc(F)c(=O)[nH]1
0.59

Next up:
## Input Name the recorded log10 MIC of the item O=C(O)c1cn(C2CC2)c2cc(N3CCNCC3)c(F)cc2c1=O in your answer.
## Output -0.12
